# SYSTEM: T1, human bombesin receptor subtype 3 (human, UniProt P32247 1-399)
# T1 construct: bombesin receptor subtype 3 (BRS3), human; expressed in CHO cells, no reporter fragment named; In the radioligand assay the receptor stood in membrane fractions of the cells; in the calcium and NFAT-luciferase assays on whole cells; also called hBRS3; CHO-hBRS3; source: CHO cells stably expressing hBRS3
# T1 sequence (looked up): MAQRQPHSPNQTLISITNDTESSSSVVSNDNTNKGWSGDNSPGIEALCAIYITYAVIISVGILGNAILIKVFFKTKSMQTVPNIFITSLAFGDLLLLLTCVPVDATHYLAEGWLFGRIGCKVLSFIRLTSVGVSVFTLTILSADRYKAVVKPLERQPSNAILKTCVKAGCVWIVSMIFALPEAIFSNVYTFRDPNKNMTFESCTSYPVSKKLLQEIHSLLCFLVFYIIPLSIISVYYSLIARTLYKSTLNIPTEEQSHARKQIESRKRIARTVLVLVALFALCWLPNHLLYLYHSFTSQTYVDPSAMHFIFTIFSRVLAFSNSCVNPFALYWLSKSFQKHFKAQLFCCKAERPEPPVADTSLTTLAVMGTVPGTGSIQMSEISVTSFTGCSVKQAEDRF
# EXPERIMENTAL PROTOCOL: radioligand binding; competition; 5 μg membrane fraction of CHO-hBRS3 cells with 0.1 nM radioligand and various concentrations of competitor, 2 h at room temperature, 50mM Tris-HCl (pH7.5), 5mM MgCl2; bound ligand separated on a GF/C filter
# SETUP CONDITIONS: one partner purified
MEASURED PROPERTY: pIC50
Scale for pIC50: -log10 of concentration given in mol/L; no unit attached.

Reported pIC50 for YGGFMRRVGRPEWWMDYQKRYGGFL (peptide E, a partially processed product of the opioid peptide precursor proenkephalin A; 25 residues; also called P2; synthetic peptide E; source: synthetic peptide (chemically synthesized)) [peptide E] : what is it?
6.44
